System: Escherichia coli TOP10
Assay: shrunken log2 fold change of peptide-encoding DNA abundance (4.5 h post-induction vs induction); higher = less antimicrobial activity (less host growth inhibition)
Settings: time post-induction: 4.5 h; library: site-saturation at positions 5, 18, 19, 20
endpoint name: shrunken log2 fold change
Respond numerically, and do not add a unit to the figure.

Reported shrunken log2 fold change of RRIRTRPPRLPRPRPRPVSQPRP : 0.0169

According to the records, this sequence RRIRLRPPRLPRPRPRPLYKPRP displays shrunken log2 fold change of -0.328

So for RRIRFRPPRLPRPRPRPSMGPRP , the logged shrunken log2 fold change turned out to be -0.648

Value of measured shrunken log2 fold change for the entry RRIRSRPPRLPRPRPRPWVHPRP : -0.221

The value of shrunken log2 fold change measured for the sequence RRIRQRPPRLPRPRPRPNEVPRP turned out to be -0.00511

Entry RRIRWRPPRLPRPRPRPGLVPRP ; shrunken log2 fold change = 0.449

###

Task for the reader: assign each of the following sequences its reported shrunken log2 fold change.
Test system: Escherichia coli TOP10
Assay: shrunken log2 fold change of peptide-encoding DNA abundance (4.5 h post-induction vs induction); higher = less antimicrobial activity (less host growth inhibition)
Conditions: time post-induction: 4.5 h; library: site-saturation at positions 5, 18, 19, 20
Give a plain numeric answer without units written out.

Sure, the documented shrunken log2 fold change for RRIRYRPPRLPRPRPRPNTDPRP is -0.964

Form field shrunken log2 fold change, entry RRIRQRPPRLPRPRPRPCDQPRP : 0.0849

Summary for this sequence, RRIRMRPPRLPRPRPRPLSHPRP : shrunken log2 fold change is 0.177

Documented shrunken log2 fold change of RRIRFRPPRLPRPRPRPHQYPRP : -0.88

shrunken log2 fold change for RRIRKRPPRLPRPRPRPYVDPRP is -0.24

Reported shrunken log2 fold change of RRIRVRPPRLPRPRPRPLQVPRP : -0.0194

Value of measured shrunken log2 fold change for the entry RRIRRRPPRLPRPRPRPDPVPRP : 0.0811

The sequence identified as RRIRCRPPRLPRPRPRPAIAPRP registered its shrunken log2 fold change at 0.165

# shrunken log2 fold change (sequence: RRIRWRPPRLPRPRPRPSFPPRP ) is -0.0295

###

System: Escherichia coli TOP10;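 note: peptides expressed intracellularly from a pBAD plasmid library in pooled LB shake-flask culture, induced with 0.3% L-arabinose, DNA abundance read by NGS, three biological replicates, DESeq2 with apeglm shrinkage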
Test: shrunken log2 fold change of peptide-encoding DNA abundance (4.5 h post-induction vs induction); higher = less antimicrobial activity (less host growth inhibition)
Conditions: time post-induction: 4.5 h; library: site-saturation at positions 5, 18, 19, 20
endpoint name: shrunken log2 fold change
Write the number on its own, no unit after it.

# shrunken log2 fold change of RRIRYRPPRLPRPRPRPAYHPRP = -0.321

Per the record, RRIRCRPPRLPRPRPRPFWAPRP has shrunken log2 fold change of -0.0403

Given item RRIRPRPPRLPRPRPRPTKMPRP , the value recorded as its shrunken log2 fold change is 0.0417

Sample RRIRHRPPRLPRPRPRPNCCPRP ; shrunken log2 fold change observed: 0.0161

get_value(item= RRIRHRPPRLPRPRPRPLSAPRP , readout=shrunken log2 fold change) returns 0.242

The recorded shrunken log2 fold change for RRIRDRPPRLPRPRPRPYWSPRP is -0.503

# shrunken log2 fold change of RRIRFRPPRLPRPRPRPQKSPRP = -0.285

The reported shrunken log2 fold change of the sequence RRIRGRPPRLPRPRPRPPIFPRP was 0.35

Looking up RRIRGRPPRLPRPRPRPKAQPRP , I see its shrunken log2 fold change listed as 1.27

According to the records, this sequence RRIRHRPPRLPRPRPRPKHGPRP displays shrunken log2 fold change of 0.109

The sequence identified as RRIRFRPPRLPRPRPRPCTSPRP registered its shrunken log2 fold change at -0.0377

Kindly note the recorded shrunken log2 fold change for RRIRHRPPRLPRPRPRPNCYPRP , which is -0.0056

// field: shrunken log2 fold change; key: RRIRLRPPRLPRPRPRPLFGPRP ; value = -0.0652

The reported value for RRIRIRPPRLPRPRPRPTWIPRP in terms of shrunken log2 fold change is -0.415

Value of measured shrunken log2 fold change for the entry RRIRDRPPRLPRPRPRPCTIPRP : -0.23

Per the records, this sequence ( RRIRVRPPRLPRPRPRPITIPRP ) has shrunken log2 fold change equal to -0.0236

Per the records, this sequence ( RRIRRRPPRLPRPRPRPHAKPRP ) has shrunken log2 fold change equal to 0.0278

Per the record, RRIRVRPPRLPRPRPRPWNVPRP has shrunken log2 fold change of -0.0441

get_value(item= RRIRLRPPRLPRPRPRPDSAPRP , readout=shrunken log2 fold change) returns 0.0605

Value of measured shrunken log2 fold change for the entry RRIRFRPPRLPRPRPRPEEKPRP : -0.0254

shrunken log2 fold change reported for this sequence RRIRHRPPRLPRPRPRPYFSPRP : -0.129

Reported shrunken log2 fold change for RRIRNRPPRLPRPRPRPMLDPRP was -0.000365

Data point: RRIRYRPPRLPRPRPRPEYEPRP ; shrunken log2 fold change = -0.0176

According to the records, this sequence RRIRNRPPRLPRPRPRPCQQPRP displays shrunken log2 fold change of -0.0105

shrunken log2 fold change in this record for RRIRQRPPRLPRPRPRPLNPPRP : -0.303

Briefly, shrunken log2 fold change measured for RRIRNRPPRLPRPRPRPLLGPRP : 0.232
